Hey, just so you know, these numbers are from ChEMBL document CHEMBL1141685.

EXPERIMENT NOTES: Metabolic stability in cynomolgus monkey liver microsomes at 1 uM
CONDITION LABEL: microsomes
// reported half-life at 1 µM per item

COMPOUND	RESULT UNIT	VALUE COMPARATOR	half-life at 1 µM
CS(=O)(=O)Nc1ccc2c(c1)S(=O)(=O)N=C(C1=C(O)C3CCCCN3N(Cc3ccc(F)cc3)C1=O)N2 (stereo not drawn)	min	>	60
CC(C)(C)CCN1C(=O)C(C2=NS(=O)(=O)c3cc(NS(C)(=O)=O)ccc3N2)=C(O)C2CCCN21 (stereo not drawn)	min	=	7.5
CC(C)CCN1C(=O)C(C2=NS(=O)(=O)c3cc(NS(C)(=O)=O)ccc3N2)=C(O)C2CCCN21 (stereo not drawn)	min	=	63

###

EXPERIMENT NOTES: Cytotoxicity against human Huh7/C24 cells after 72 hrs […]
Format: cell-based, Huh-7

COMPOUND	CC50 at 72 h
CS(=O)(=O)Nc1ccc2c(c1)S(=O)(=O)N=C(c1c(O)c3cccn3n(Cc3ccc(F)cc3)c1=O)N2	> 1 µM
CC(C)(C)CCN1C(=O)C(C2=NS(=O)(=O)c3cc(NS(C)(=O)=O)ccc3N2)=C(O)C2CCCN21 (stereo not drawn)	> 1 µM
CS(=O)(=O)Nc1ccc2c(c1)S(=O)(=O)N=C(C1=C(O)C3CCCN3N(Cc3ccc(F)cc3)C1=O)N2 (stereo not drawn)	> 1 µM
CN(c1ccc2c(c1)S(=O)(=O)N=C(C1=C(O)C3CCCN3N(CCC(C)(C)C)C1=O)N2)S(C)(=O)=O (stereo not drawn)	> 33 µM
CC(C)(C)CCN1C(=O)C(C2=NS(=O)(=O)c3cc(NS(C)(=O)=O)ccc3N2)=C(O)C2(C)CCCN12 (stereo not drawn)	> 33 µM
CC(C)(C)CCN1C(=O)C(C2=NS(=O)(=O)c3cc(NS(C)(=O)=O)ccc3N2)=C(O)C2CCCCN21 (stereo not drawn)	> 33 µM
CS(=O)(=O)Nc1ccc2c(c1)S(=O)(=O)N=C(C1=C(O)C3CCCCN3N(Cc3ccc(F)cc3)C1=O)N2 (stereo not drawn)	> 1 µM
CC(C)CCN1C(=O)C(C2=NS(=O)(=O)c3cc(NS(C)(=O)=O)ccc3N2)=C(O)C2CCCN21 (stereo not drawn)	> 1 µM

###

EXPERIMENT NOTES: Metabolic stability in human liver microsomes at 1 uM
CONDITION LABEL: microsomes
As shown below, each of these molecules has a reported half-life at 1 µM value.
ENDPOINT: half-life at 1 µM

MOLECULE	ENDPOINT	RESULT
CS(=O)(=O)Nc1ccc2c(c1)S(=O)(=O)N=C(C1=C(O)C3CCCCN3N(Cc3ccc(F)cc3)C1=O)N2 (stereo not drawn)	half-life at 1 µM	> 60 min
CC(C)CCN1C(=O)C(C2=NS(=O)(=O)c3cc(NS(C)(=O)=O)ccc3N2)=C(O)C2CCCN21 (stereo not drawn)	half-life at 1 µM	> 60 min
CC(C)(C)CCN1C(=O)C(C2=NS(=O)(=O)c3cc(NS(C)(=O)=O)ccc3N2)=C(O)C2CCCN21 (stereo not drawn)	half-life at 1 µM	59 min

###

EXPERIMENT NOTES: Metabolic stability in human liver microsomes at 1 uM
CONDITION LABEL: liver microsomes

COMPOUND	VALUE COMPARATOR	half-life at 1 µM [min]
CS(=O)(=O)Nc1ccc2c(c1)S(=O)(=O)N=C(C1=C(O)C3CCCN3N(Cc3ccc(F)cc3)C1=O)N2 (stereo not given)	>	60
CC(C)(C)CCN1C(=O)C(C2=NS(=O)(=O)c3cc(NS(C)(=O)=O)ccc3N2)=C(O)C2CCCCN21 (stereo not given)	=	52
CS(=O)(=O)Nc1ccc2c(c1)S(=O)(=O)N=C(c1c(O)c3cccn3n(Cc3ccc(F)cc3)c1=O)N2	>	60
CC(C)(C)CCN1C(=O)C(C2=NS(=O)(=O)c3cc(NS(C)(=O)=O)ccc3N2)=C(O)C2(C)CCCN12 (stereo not given)	=	4.9
CN(c1ccc2c(c1)S(=O)(=O)N=C(C1=C(O)C3CCCN3N(CCC(C)(C)C)C1=O)N2)S(C)(=O)=O (stereo not given)	>	60
